- System: A549/ATCC NSCLC
- Assay Info: NCI-60 one-dose screen, 48 h (100 = growth as untreated, 0 = no growth, -100 = all killed)
- Condition Set: 10 µM unless noted
The panel holds about 83,000 compounds, 20% with a hit somewhere; the sample as a whole holds those more often.
We use 20% as the dividing line for growth: on or above the line is yes, below is no.

Take a look at these entries with their results.
Fc1ccc(N2CC(Cn3c(C(F)(F)F)cc4c(Cl)ncnc43)C2)c(F)c1 | yes
COc1ccc(-c2nc3ccc(-c4nnc(SCc5ccccc5)o4)cc3[nH]2)cc1 | no
O=C1/C(=C/C=C/c2ccco2)SC(=S)N1CC(=S)C1C=CS(=O)(=O)C1 (centres undefined) | yes

Please turn your attention to the following entry.
Please tell me: is the compound `O=C(COc1ccc(/C=C2/C(=O)Nc3ccc(Cl)cc32)cc1)Nc1ccc(Br)cc1` at or over 20% in terms of growth?
no

----------
- Tested on: HCT-15 colon
- Assay Info: NCI-60 one-dose screen, 48 h (100 = growth as untreated, 0 = no growth, -100 = all killed)
- Condition Set: 10 µM unless noted
Compounds without any hit were thinned out: in the full panel of roughly 83,000, 20% have a hit.
Quantity: growth (%)
Answer with a number only, understood to be in %.

Reference set (3 entries):
c1n[nH]cc1-c1nc2ccc3[nH]ncc3c2c2c1CC1(CC2)COC1 | 70.5
COc1cc(CNC(=O)C[C@H](C)CCC=C(C)C)ccc1OCc1cn(-c2ccc(Cl)c(Cl)c2)nn1 | 29.4
COc1ccc(NC(=O)Cn2c(/C=C/c3cccc(Br)c3)nc3ccccc3c2=O)cc1 | 70.9

Which value of growth has been reported for `Cc1ccc(-c2cc(-c3ccccc3)[nH]c(=O)c2C#N)cc1` in the records?
71

----------
- System: OVCAR-8 ovarian
- Assay Info: NCI-60 one-dose screen, 48 h (100 = growth as untreated, 0 = no growth, -100 = all killed)
- Condition Set: 10 µM unless noted
This is part of a sample that, as a whole, favours compounds with a hit. Of some 83,000 tested, about 20% had one in any assay.
Measured growth of individual entries
Answer with a number only, understood to be in %.

Reference set (5 entries):
Oc1ccc(Cl)c(Nc2nc(SCCN3CCOCC3)nc3c2cnn3CC(Cl)c2ccc(Br)cc2)c1 (configuration not stated) | 16.5
Cn1cc(-c2cc(N)n3nc(-c4c[nH]c5ccc(F)cc45)cc3n2)c2cc(Br)cnc21 | 42.8
FC(F)(F)c1cc2c(Cl)ncnc2n1CCN1CCCCC1 | 14.8
CCN1C(=O)N(CC)C2NNC(Sc3c(C(=O)O)c4ccccc4n(CC(C)C)c3=O)=NC21 (configuration not stated) | 11.8
O=C1Nc2cc(-c3ccc(NS(=O)(=O)c4ccc(-c5ccccc5)cc4)cc3)ccc2/C1=C/c1ccc[nH]1 | 52.2

Could you now consider this next molecule?
Which value of growth has been reported for COc1ccc(C2=Nc3c(N)nc(N)nc3NC(c3ccc(Oc4nc(Nc5ccc(F)cc5)nc(N(C)C)n4)c(OC)c3)C2)cc1 (configuration not stated) in the records?
81.7

----------
- Test system: K-562 leukemia
- Assay Info: NCI-60 one-dose screen, 48 h (100 = growth as untreated, 0 = no growth, -100 = all killed)
- Condition Set: 10 µM unless noted
This is part of a sample that, as a whole, favours compounds with a hit. Of some 83,000 tested, about 20% had one in any assay.
Quantity: growth (%)
Answer with a number only, understood to be in %.

Reference set (3 entries):
COc1ccc2[nH]c(O)c(N=Nc3nc(-c4ccc(Cl)cc4)cs3)c2c1 | 12.1
COc1ccc2[nH]c(O)c(N=Nc3nc(-c4ccc(C#N)cc4)cs3)c2c1 | 67.7
O=C(Nc1ccc(-c2ccc3c(c2)NC(=O)/C3=C\c2ccc[nH]2)cc1)Nc1ccc(Cl)c(Cl)c1 | 39

Which value of growth has been reported for Fc1ccccc1CNc1nc(SCCN2CCOCC2)nc2c1cnn2CC(Cl)c1ccc(Br)cc1 (configuration not stated) in the records?
3.13

Another: `O=C(NNC(=S)NC(=O)c1ccccc1)c1ccc(OCc2nc3ccc(Cl)cc3[nH]2)cc1`
4.64

Another: `CCCCCCCOc1ccc(S(=O)(=O)Nc2ccc(C)c(F)c2C(=O)O)cc1`
88.4

Another: CN(C)c1nc(NCCNS(=O)(=O)c2ccc(C3=Nc4c(N)nc(N)nc4NC(c4ccc(C(F)(F)F)cc4)C3)cc2)nc(N2CCOCC2)n1 (configuration not stated)
9.12

Another: `CCOC(=O)c1ccc(NC(=S)NC(=O)c2cccc(NC(=O)c3ccc(C)cc3)c2)cc1`
76.3

Another: `S=C(Nc1ccccc1)Nc1ccc(OCc2nc3ccc(Cl)cc3[nH]2)cc1`
30.9

Another: `O=C(CSc1nc2ccccc2c(=O)[nH]1)Nc1ccccc1C(=O)O`
97.8

Another: NS(=O)(=O)c1ccc(N2N=C(c3ccc(NC(=O)Nc4ccccc4)cc3)CC2c2ccc(Br)cc2)cc1 (configuration not stated)
16.7

Another: `Cc1ccc(C(=O)Nc2cccc(C(=O)NC(=S)Nc3ccc(S(N)(=O)=O)cc3)c2)cc1`
71.2

Another: `COC(=O)c1c(C(=O)OC)c2ccc3c4ccccc4ccc3n2c1C(=O)OC`
117

Another: `COc1ccccc1/C=C/c1cccc(NC(=S)NCCCCN(C)C)c1`
1.56

Another: Oc1ccc(Cl)c(Nc2nc(SCCN3CCOCC3)nc3c2cnn3CC(Cl)c2ccc(Br)cc2)c1 (configuration not stated)
-22.9

Another: `COc1ccc(-c2nc3ccccc3n2CC(=O)N=Nc2c(O)[nH]c3ccc(OC)cc23)cc1`
32.5

Another: `O=C(N=Nc1c(O)[nH]c2ccc(Cl)cc12)c1ccc2nc(-c3ccc(Cl)cc3)[nH]c2c1`
8.93

----------
- Test system: EKVX NSCLC
- Assay Info: NCI-60 one-dose screen, 48 h (100 = growth as untreated, 0 = no growth, -100 = all killed)
- Condition Set: 10 µM unless noted
About 83,000 compounds went through this panel and 20% of them were active in at least one assay; those are over-represented in the sample as a whole.
Measured growth of individual entries
Answer with a number only, understood to be in %.

COc1ccc(SC2c3cc(OC)ccc3Oc3nc(N)c(C#N)c(N)c32)cc1 (stereo not drawn) | 76.3
Cc1cccc(-c2ccccc2Oc2ccc3nnc(Cl)n3n2)c1 | 98.2

Could you now consider this next compound?
Which value of growth has been reported for `CCCCCCCCc1ccc(C(=O)Nc2ccc(C)cc2C(=O)O)cc1` in the records?
77.5

----------
- Test system: CCRF-CEM leukemia
- Assay Info: NCI-60 one-dose screen, 48 h (100 = growth as untreated, 0 = no growth, -100 = all killed)
- Condition Set: 10 µM unless noted
- Method: Growth inhibition of the CCRF-CEM human tumor cell line is measured as a screen for anti-cancer activity. Cells are grown in 96 well plates and exposed to the test compound for 48 hours. Compounds are tested at a single concentration, which is 10^-5 M for most compounds. The reported endpoint is percent growth (GI% or GIPRCNT), where numbers from 0 - 100% represent growth inhibition, and numbers from -100% - 0 represent cell death. For example, a value of 40 represents 60% growth inhibition. […]
About 83,000 compounds went through this panel and 20% of them were active in at least one assay; those are over-represented in the sample as a whole.
Measured growth of individual entries
Answer with a number only, understood to be in %.

Reference set (2 entries):
Cc1cccc(-c2ccccc2Oc2ccc3nnc(Cl)n3n2)c1 | 103
c1n[nH]cc1-c1nc2ccc3[nH]ncc3c2c2c1CC1(CC2)COC1 | 30.3

Which value of growth has been reported for `CNc1nc2ccccc2n2c(-c3ccc(O)c(O)c3)cnc12` in the records?
14.9

----------
- Test system: SF-295 CNS
- Assay Info: NCI-60 one-dose screen, 48 h
- Condition Set: 10 µM unless noted
About 83,000 compounds went through this panel and 20% of them were active in at least one assay; those are over-represented in the sample as a whole. Activity calls are given as the source filed them. Rule for the calls: active = growth percent below 10; inactive = the rest.
Assign a class; possible classes are active, inactive

Take a look at these entries with their results.
O=C1Nc2cc(-c3ccc(NS(=O)(=O)c4ccc(-c5ccccc5)cc4)cc3)ccc2/C1=C/c1ccc[nH]1 | inactive
C=CCSc1nnc(-c2ccc(-c3nc4ccc(Cl)cc4[nH]3)cc2)o1 | inactive
C/C(=N/O)c1ccc(NC(=O)CSc2nnc(-c3ccc4nc(-c5ccc(Cl)cc5)[nH]c4c3)o2)cc1 | inactive
CC(Nc1ncnc2ccc(-c3ccc4oc(N)nc4c3)cc12)c1ccccc1 (stereo not given) | active
COc1ccc(N=Nc2c(N)nn3c(N)c(C#N)c(-c4ccccc4)nc23)cc1 | inactive
COC(=O)c1c(C(=O)OC)c2c3ccccc3c3ccccc3n2c1C(=O)C(F)(F)F | inactive
CCC1(OC(=O)c2ccccc2SSCCOC(=O)CCCCC2SCC3NC(=O)NC32)C(=O)OCc2c1cc1n(c2=O)Cc2cc3ccccc3nc2-1 (stereo not given) | active
Cc1nc2sccn2c1-c1nnc(SCC(C)C)o1 | inactive

// param item: `N#CCc1nnc(NC(=O)c2ccc(-n3c(=O)[nH]c4ccccc4c3=O)cc2)s1` ; yields the recorded call
inactive

Another: COc1cc(C2CC(c3cc(OC)c(OC)c(OC)c3)=Nc3c(N)nc(N)nc3N2)ccc1Oc1nc(Nc2ccc(F)cc2)nc(N(C)C)n1 (stereo not given)
inactive

Another: `Cc1nn(-c2ccccc2)c2nc(C)n(CC(=O)N/N=C/c3cccc([N+](=O)[O-])c3)c(=O)c12`
inactive

Another: `Cn1cc(-c2cc(N)n3nc(-c4c[nH]c5ccc(F)cc45)cc3n2)c2cc(Br)cnc21`
inactive

Another: `COC(=O)c1cccc(Oc2ccc(NC(=O)Nc3cc(C(F)(F)F)ccc3F)cc2)c1`
inactive

Another: `COc1ccc(C(=O)c2cc(C(C)=O)c3c(C)cc(C)cn23)cc1`
inactive

Another: `Oc1cncc(-c2ccc3ncnc(N4CCc5cc(F)c(Cl)cc54)c3c2)c1`
inactive

// provenance: PubChem BioAssay (NCI)
